The reader will find reported kon values listed item by item below.
# target or system: T1, Rhesus macaque CD4-HIS (Acro Biosystems, Cat. CD4-C52H7) (rhesus macaque, UniProt P16003 26-390)
# T1 construct: Bought reagent; also called Rhesus CD4; rhesus CD4-HIS; not shown: His tag
# T1 sequence (P16003 26-390 limits assumed): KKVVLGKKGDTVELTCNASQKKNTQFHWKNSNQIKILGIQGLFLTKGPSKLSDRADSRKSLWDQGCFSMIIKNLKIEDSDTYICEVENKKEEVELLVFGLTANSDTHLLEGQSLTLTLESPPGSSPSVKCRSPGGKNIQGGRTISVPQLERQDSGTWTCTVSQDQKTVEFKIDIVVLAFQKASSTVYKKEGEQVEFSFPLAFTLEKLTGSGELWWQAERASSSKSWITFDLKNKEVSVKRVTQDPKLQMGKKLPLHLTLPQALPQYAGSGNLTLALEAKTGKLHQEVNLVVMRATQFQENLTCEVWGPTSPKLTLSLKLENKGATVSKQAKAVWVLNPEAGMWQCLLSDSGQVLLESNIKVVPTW
# protocol: BLI (Octet Red384); Ab on anti-mouse Fc (AMC) sensor; rhesus CD4-HIS 100/50/25 nM; global 1:1 fit;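 also: antibodies loaded at 10 µg/mL, an unrelated mouse-derived antibody served as internal reference, curves fit over association and dissociation phases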
readout label: kon (M⁻¹ s⁻¹)

{"columns": ["binder", "readout label", "quantitative readout"],
 "data": [
  ["75110_14N19A (antibody, V domains shown, Tested as antibody purified from AlivaMab Mouse hybridoma supernatant (human variable domains, kappa; mouse Fc, captured on anti-mouse IgG Fc sensors); also called ADS75110 purified AMM Ab) VH: QVQLQESGPGLVKPSETLSLTCTVSGGSISRYYWSWIRQPAGKGLEWIGRICTSENPNYNPALKSRVTMSVDTSKNQFSLKLSSVTAADTAVYYCARELERLNYYGMDVWGQGTTVTVSS VL: DIQMTQFPSSLSASVGDRVTITCQASQDISNYLNWYQQKPGKAPKLLIYDASNLESGVPSRFSGRGSGTDFTFTISSLQPEDFATFYCQQYDTLPITFGQGTRLEIK", "kon", 150000],
  ["75110_08F20A (antibody, V domains shown, Tested as antibody purified from AlivaMab Mouse hybridoma supernatant (human variable domains, kappa; mouse Fc, captured on anti-mouse IgG Fc sensors); also called ADS75110 purified AMM Ab) VH: QVQLQESGPGLVKPSETLSLTCSVSGGSISTYYWSWIRQPAGKGLEWIGRICTTENTNYNPSLKSRVTMSIDSSKNQFSLKLSSVTAADTAVYYCARDLERLNYYGMDVWGQGATVTVSS VL: DIQMTQSPSSLSASVGDRVTITCQASQDISKYLNWYQQKPGIAPKLLIYDASNLETGVPSRFSGSGSGTDFTFTISSLQPEDFATYYCQQYDSLPITFGQGTRLEIK", "kon", 230000],
  ["75110_06E14A (antibody, V domains shown, Tested as antibody purified from AlivaMab Mouse hybridoma supernatant (human variable domains, kappa; mouse Fc, captured on anti-mouse IgG Fc sensors); also called ADS75110 purified AMM Ab) VH: QVQLQESGPGLVKPSETLSLTCTVSGGSISNYFWSWIRQPAGKGLEWIGRIYSSGNTNYNPSLKSRVTMSVDTSKNQFSLKLSSVTAADTAVYYCARDREDYYYYGMDVWGQGTTVTVSS VL: DIQMTQSPSSLSASVGDRVTITCQASQDISNYLNWYQQKPGKAPKLLIYGASILETGVPSRFTGSGSGTDFTFTISSLQPEDIATYYCQQYDSLPITFGQGTRLEIK", "kon", 3000]
]}

Just for reference, patent US20220112288A1 is where these values come from.
